test system: RARa homodimer (NR concentration 270 nM); assay: PBM binding z-score (relative to random genomic background probes); higher = stronger binding; sequences stand for … in GC…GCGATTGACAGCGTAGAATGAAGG
Readout Name: PBM binding z-score
No unit in the answer, only the number.

Quick check: PBM binding z-score on RARa homodimer (NR concentration 270 nM), item "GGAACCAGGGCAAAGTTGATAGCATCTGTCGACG" ?
0.36

Quick check: PBM binding z-score on RARa homodimer (NR concentration 270 nM), item "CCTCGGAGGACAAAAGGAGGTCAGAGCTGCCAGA" ?
0.515

---

system: THRa:RXRa (NR concentration 90 nM, RXRa partner concentration 90 nM); assay: PBM binding z-score (relative to random genomic background probes); higher = stronger binding; sequences stand for … in GC…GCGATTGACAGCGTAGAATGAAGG
Readout Name: PBM binding z-score
No unit in the answer, only the number.

Here's what some known entries look like.
Sequence Content	PBM binding z-score
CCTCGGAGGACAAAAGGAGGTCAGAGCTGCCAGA	2.5
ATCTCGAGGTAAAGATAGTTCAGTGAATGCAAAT	1.5
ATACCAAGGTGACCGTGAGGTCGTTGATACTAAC	3.74

Please report the recorded PBM binding z-score for "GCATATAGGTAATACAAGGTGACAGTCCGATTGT" .
4.15

Please report the recorded PBM binding z-score for "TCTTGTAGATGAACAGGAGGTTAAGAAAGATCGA" .
0.65

Please report the recorded PBM binding z-score for "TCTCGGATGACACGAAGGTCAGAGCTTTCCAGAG" .
1.68

Please report the recorded PBM binding z-score for "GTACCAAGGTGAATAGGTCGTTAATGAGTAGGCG" .
1.7

Please report the recorded PBM binding z-score for "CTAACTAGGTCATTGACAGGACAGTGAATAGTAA" .
2.85

Please report the recorded PBM binding z-score for "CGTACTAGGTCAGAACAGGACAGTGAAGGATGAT" .
3.33

Please report the recorded PBM binding z-score for "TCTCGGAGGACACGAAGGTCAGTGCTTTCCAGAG" .
2.73

Please report the recorded PBM binding z-score for "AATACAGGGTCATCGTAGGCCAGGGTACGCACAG" .
4.57

Please report the recorded PBM binding z-score for "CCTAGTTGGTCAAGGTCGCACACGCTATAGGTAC" .
2.64

Please report the recorded PBM binding z-score for "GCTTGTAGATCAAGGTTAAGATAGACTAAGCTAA" .
1.21

Please report the recorded PBM binding z-score for "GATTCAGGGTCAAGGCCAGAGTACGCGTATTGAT" .
3.87

Please report the recorded PBM binding z-score for "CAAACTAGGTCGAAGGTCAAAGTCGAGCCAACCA" .
3.5
